Reference source: paper PMC9607081

- Subject of test: human GlyR α1 subunit P96A (Homo sapiens, UniProt P23415, P124A)
- Construct: expressed in transfected cells; host or cells: Xenopus laevis oocytes injected with receptor mRNA
- Sequence (P23415 29-457 P124A): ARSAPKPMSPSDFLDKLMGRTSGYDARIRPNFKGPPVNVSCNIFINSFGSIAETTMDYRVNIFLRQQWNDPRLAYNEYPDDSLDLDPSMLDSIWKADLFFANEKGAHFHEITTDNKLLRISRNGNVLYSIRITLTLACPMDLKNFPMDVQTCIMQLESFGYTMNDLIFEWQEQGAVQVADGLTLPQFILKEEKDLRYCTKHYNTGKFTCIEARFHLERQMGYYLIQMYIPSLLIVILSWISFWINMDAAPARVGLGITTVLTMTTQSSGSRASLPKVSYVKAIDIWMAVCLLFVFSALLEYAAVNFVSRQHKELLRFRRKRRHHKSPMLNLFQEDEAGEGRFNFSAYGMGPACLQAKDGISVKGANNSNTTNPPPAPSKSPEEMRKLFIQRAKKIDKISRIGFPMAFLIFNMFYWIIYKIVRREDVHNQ
- Protocol details: Two-electrode voltage clamp of Xenopus oocytes expressing P96A GlyR
- Format: cell-based
- Run conditions: Table 1, −60 mV, n = 5, read-out: EC50
- Procedure: Injection volumes were 50–100 nL per cell. All experiments were performed at 22–25 °C. […] The holding potential was −60 mV unless otherwise specified.
Property measured: EC50

Incoming: Quick check: EC50 of NCCS(=O)(=O)O [Tau, taurine] ?
Outgoing: 2440 µM
